The measurements presented in this section are drawn from paper PMC11071649.

# Tested on: Raji B lymphoblastoid cell
# protocolDescription: MTT anti-proliferative assay, Raji
# Format: cell-based, human
assayEndpoint: SI (selectivity index), IC50 (L-02)/IC50 (Raji)

| smilesInput | reading |
| --- | --- |
| N#C/C(=C\c1ccc(/C=C/C(=O)c2ccc(Br)cc2)cc1)c1ccc(OC(F)(F)F)cc1 | > 79.3 |
| N#C/C(=C\c1ccc(Cl)cc1)c1ccc(OC(F)(F)F)cc1 | > 1.8 |
| CC(C)c1ccc(/C=C(\C#N)c2ccc(OC(F)(F)F)cc2)cc1 | > 1.5 |
| CCN(CC)c1ccc(/C=C(\C#N)c2ccc(OC(F)(F)F)cc2)cc1 | > 2.2 |
| CCN(CC)c1ccc(/C=C(\C#N)c2ccc(OC)cc2)cc1 | > 5.1 |

Exercise: I would be grateful if you could share the reported SI (selectivity index), IC50 (L-02)/IC50 (Raji) for CC(C)c1ccc(/C=C(\C#N)c2ccc(C(F)(F)F)cc2)cc1 .
Solution: > 2.8

###

In this section we review reported pIC50 values for a set of compounds.
# Tested on: MCF-7 breast cancer cell
# protocolDescription: MTT anti-proliferative assay, MCF-7
# Format: cell-based, human
# experimentalConditions: MTT, 48 h
pIC50: −log10 of the molar value.

Example results:
| smilesInput | pIC50 |
| --- | --- |
| COc1cccc(/C=C(\C#N)c2ccc(OC(F)(F)F)cc2)c1 | < 4.00 |
| Cc1ccc(/C=C(\C#N)c2cccc(OC(F)(F)F)c2)cc1 | < 4.00 |
| CCCOc1ccc(/C=C(\C#N)c2cccc(OC(F)(F)F)c2)cc1 | < 4.00 |
| N#C/C(=C\c1ccc(Br)cc1)c1ccccc1OC(F)(F)F | < 4.00 |

Exercise: I would be grateful if you could share the reported pIC50 for N#C/C(=C\c1cccc(C(F)(F)F)c1)c1ccc(C(F)(F)F)cc1 .
Solution: < 4.00

Exercise: I would be grateful if you could share the reported pIC50 for CCc1ccc(/C=C(\C#N)c2ccc(OC(F)(F)F)cc2)cc1 .
Solution: 4.22

Exercise: I would be grateful if you could share the reported pIC50 for N#C/C(=C\c1ccc(Br)cc1)c1cccc(OC(F)(F)F)c1 .
Solution: < 4.00

Exercise: I would be grateful if you could share the reported pIC50 for N#C/C(=C\c1ccc(N2CCOCC2)cc1)c1cccc(OC(F)(F)F)c1 .
Solution: < 4.00

Exercise: I would be grateful if you could share the reported pIC50 for Cc1ccc(/C=C(\C#N)c2ccccc2OC(F)(F)F)cc1 .
Solution: < 4.00

###

# System: HCT116 colectal cancer cell
# protocolDescription: MTT anti-proliferative assay, HCT116
# Type: cell-based, human
# experimentalConditions: MTT, 48 h; read-out: IC50 HCT-116
pIC50: −log10 of the molar value.
assayEndpoint: pIC50

Example results:
| smilesInput | systemName | reading |
| --- | --- | --- |
| N#C/C(=C\c1ccc(Br)cc1)c1ccc(C(F)(F)F)cc1 | HCT116 colectal cancer cell | < 4.00 |
| N#C/C(=C\c1ccccc1)c1cccc(OC(F)(F)F)c1 | HCT116 colectal cancer cell | < 4.00 |
| CCc1ccc(/C=C(\C#N)c2cccc(OC(F)(F)F)c2)cc1 | HCT116 colectal cancer cell | < 4.00 |

Exercise: I would be grateful if you could share the reported pIC50 for N#C/C(=C\c1ccc(F)cc1)c1cccc(OC(F)(F)F)c1 .
Solution: 5.96

Exercise: I would be grateful if you could share the reported pIC50 for N#C/C(=C\c1ccc(Cl)cc1)c1ccccc1OC(F)(F)F .
Solution: < 4.00
